Target: RUNX1 (UniProt Q01196)
Sequence (Q01196 whole entry): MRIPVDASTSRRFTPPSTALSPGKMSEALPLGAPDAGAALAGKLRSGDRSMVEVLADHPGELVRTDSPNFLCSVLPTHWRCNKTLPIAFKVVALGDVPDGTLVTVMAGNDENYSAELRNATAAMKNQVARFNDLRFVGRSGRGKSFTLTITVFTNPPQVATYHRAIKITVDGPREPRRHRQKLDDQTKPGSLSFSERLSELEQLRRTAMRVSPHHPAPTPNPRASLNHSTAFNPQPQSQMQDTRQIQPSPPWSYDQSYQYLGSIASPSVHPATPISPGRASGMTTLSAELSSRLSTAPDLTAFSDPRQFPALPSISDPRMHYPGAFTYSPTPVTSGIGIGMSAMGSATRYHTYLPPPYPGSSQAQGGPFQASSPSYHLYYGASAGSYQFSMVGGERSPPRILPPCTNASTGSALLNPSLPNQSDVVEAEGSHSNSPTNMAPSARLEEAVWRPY
Experiment: RUNX1 binding intensity (PBM fluorescence), RUNX1 alone (arbitrary fluorescence units); higher = stronger binding
Conditions: RUNX1 concentration 2 nM; ETS1 concentration 0 nM
Whole data set: some 4,000 sequences, median “arbitrary fluorescence units” near 830, cut for the highest 2% near 6,500. Many of the other results were omitted from the sample, so the highest values are more common in it than they were.
Quick rule: RUNX1 binding intensity of at least 900 means met, below that means not met.

>  <Ordered Residues>
TTCTGTGGGGACAATTAGGGTTTCTGGGTTTTCTGA

>  <Assigned Category>
not met

$$$$
>  <Ordered Residues>
TGAAGGCAATTGACGAACACGTGACGCGGTCGGGCG

>  <Assigned Category>
not met

$$$$
>  <Ordered Residues>
GCTTTGCAGTGTCCTCTATGGAACACCACACACAGT

>  <Assigned Category>
not met

$$$$
>  <Ordered Residues>
CATTCATGTGGCTTATAGGCACACCCTGCCTGCCTA

>  <Assigned Category>
not met

$$$$
>  <Ordered Residues>
GGGATCCTTCAGCTCCGGGTTAACCCCGACCGCGCC

>  <Assigned Category>
not met

$$$$
>  <Ordered Residues>
TTTATCCTTATTTGCTGGCTTCGCCCACAAGCACAG

>  <Assigned Category>
met

$$$$
>  <Ordered Residues>
ACCCCAAGCCCACAAACCCACCTGAAGGAACCAACT

>  <Assigned Category>
met

$$$$
>  <Ordered Residues>
TTAACTCCACAGAAGAATAAACCACCACCGCTCACC

>  <Assigned Category>
met

$$$$
>  <Ordered Residues>
AGCGCCTTACCCGCGGCACACCCATTTGCTGACCCC

>  <Assigned Category>
met

$$$$
>  <Ordered Residues>
GGCATCCCCTTGCGGCCATCACTTTCTATGCCCTCA

>  <Assigned Category>
met

$$$$
>  <Ordered Residues>
GTAGCCGGGTGTTACGGAGCGCTGCGGGCAAAGCAG

>  <Assigned Category>
not met

$$$$
>  <Ordered Residues>
ACCCACTTGCTGTTAGAGCATCTTTGCAACCACAGG

>  <Assigned Category>
not met

$$$$
>  <Ordered Residues>
AGCTGAGGTCGCGGTGCAGCAGCAGCAAACGTGATA

>  <Assigned Category>
met

$$$$
>  <Ordered Residues>
CGTTTACTGTCTGGGACTGCGCCCACGCGGTCACGT

>  <Assigned Category>
not met

$$$$
>  <Ordered Residues>
CTGCCTGCCCCACAGCATGCAGGGACAGGCAGTGGG

>  <Assigned Category>
not met

$$$$
>  <Ordered Residues>
ACGAGGTTTCGTGCAGGCTCCAGCCGAGACCACATC

>  <Assigned Category>
not met

$$$$
>  <Ordered Residues>
AACTGGGCTGAAAGAACGGCTAACCGCAAGCTGCCG

>  <Assigned Category>
met

$$$$
>  <Ordered Residues>
ATTTCCATTTACGGACTCTTCTCCTGCCCGCAGGGC

>  <Assigned Category>
met

$$$$
>  <Ordered Residues>
CACCTTTGTTGTGGTTTGTAAACGGAGACAAAAACA

>  <Assigned Category>
met

$$$$
>  <Ordered Residues>
CTTGCCACACTGCCTCTTGTTTTGAACCACTATATT

>  <Assigned Category>
met

$$$$
>  <Ordered Residues>
CTCATAACCGCTAACTCAACCTCTAACATTTGCTGT

>  <Assigned Category>
met

$$$$
>  <Ordered Residues>
CTACCGGGAGTGCGGGTCGCGCTTCAGGCGGCGTCC

>  <Assigned Category>
not met

$$$$
>  <Ordered Residues>
TGTTACCACTGTTAGACTAGAGAGCATGCTGTTGTT

>  <Assigned Category>
not met

$$$$
>  <Ordered Residues>
CAGGGGGCCCCACATGCCGCTCTTGCTGCCCAGGTC

>  <Assigned Category>
not met

$$$$
>  <Ordered Residues>
AATTAAATTGTGGTAGATAGTAAAAGGACGTAGTTA

>  <Assigned Category>
met

$$$$
>  <Ordered Residues>
TTTAATTCTGTGGTTAGAAGTAAAAGGACGTAAAGG

>  <Assigned Category>
met

$$$$
>  <Ordered Residues>
GCAATCTTGACCACAACATGGAGACAGGCAATCAAA

>  <Assigned Category>
met

$$$$
>  <Ordered Residues>
TGGCCCCGGGGCCCCACAACGGCTTCATGTGTCCCG

>  <Assigned Category>
not met

$$$$
>  <Ordered Residues>
CTTGTTCTATCTCCTGTTTGTGGTGAGTGACTGTCT

>  <Assigned Category>
met

$$$$
>  <Ordered Residues>
GGAGGAAGGCAGCAAAGAAAGAGGTGGTTTCGGCAC

>  <Assigned Category>
not met

$$$$
>  <Ordered Residues>
CAGCATGTGGGTGCACACACCGATTCCTTAGAGGTT

>  <Assigned Category>
not met

$$$$
>  <Ordered Residues>
ACACCTCAGCAAGTGGCAGAGACCACAACAAGTCAG

>  <Assigned Category>
met

$$$$
>  <Ordered Residues>
CTCCTGCGGCGACACGCCTAGCAGACGGCGCAAGGC

>  <Assigned Category>
not met

$$$$

Where do the numbers come from? From the supplement of paper PMC10681739.
